PROTOCOL: yeast display, Sf9 membrane polyspecificity reagent, FACS + sequencing; frameworks hold sequencing errors
READOUT_TYPE: polyreactivity (PSR sort gate)

Some sequences with known polyreactivity (PSR sort gate) results, for comparison:
MACROMOLECULE_SEQUENCE	polyreactivity (PSR sort gate)
QVQLVESGGGLVQAGGSLRLSCAASGSILGPNAMGWYRQAPGKERELVARISTSGGSTYYADSVKGRFTISRDNAKNTVYLQMNSLKPEDTAVYYCATGLVWWRSPYDYWGQGTQVTVSS	high polyreactivity
QVQLVESGGGLVQAGGSLRLSCAASGSTFYRNTMGWYRQAPGKERELVAAIRRSGSSTYYADSVKGRFTISRDIAKNTVYLQMNSLKREDTAVYYCAKEGLSYRYYYWGQGTQVTVSS	high polyreactivity
QVQLVESGGGLDQAGGSLRLTCAASGNTFRSYAMGWSRQAPGKEREFVAAISLSGGNTYYADSVKGRFTISRDNAKNTVYVQMNSLKPEDTAVYYCAADYEYSGYGYWGQGTQVTVSS	high polyreactivity
QVHLVESGGGLVQAGGSLRLSCAASGLIFYDNMGWYRQAPGKERELVAAISSSGGSTSYADSVKGRFTISRDNAKNTVYLQMYSLKPEDTAVYYCAADSYPAYLGFVGYDYWGQGTQVTVSS	low polyreactivity
QVQLVESGGGLVQAGGSLRLSCAASGRTFTSYPMGWYRQAPGKERELVAAISQGGGRTYYADSVKGRFTISRDNAKNTVYLQMNSLKPEDTAVYYCNTVSLSLRYDYWGQGTQVTVSS	high polyreactivity
QVQLVESWGGLVQAGGSLRLSCAASGFTFTGYAMGWYRQAPGKERELVAAISQSGGSTYADSVKGRFTISRDNAKNTVYLQMNSLKPEDTAVYYCAAVWFLLTEYDYWGQGTQVTVSS	low polyreactivity
QVQLVESGGGLVQAGGSLRLSCAASGRTFYRNAMGWYRQAPGKERELVAAISRGDSTYYADSVKGRFTISRDNAKNTVYLQMNSLKPEDTAVYYCAKRARRIGDVNMGSWGQGTQVTVSS	low polyreactivity
QVQLVESGGGLVQAGGSLRLSCAASGFIYFGNAMGWYRQAPGKERELVAAINSNGSSTYYADSVKGRFTISRDNAKNTVYFLMNSLQPEDTAVYYCAKKISVHEGAWPSNPDGDYWGQGTQVTVSS	low polyreactivity
QVQLVESGGGLVQAGGSLRLSCAASGSIFRWYAMGWYRQAPGKERELVAAITWSASRTYYADSVKGRFTISRDTAKNTVYLQMNSLKPEDTAVYYCAADHDGPYAGYDSWRQGTQVTVSS	low polyreactivity
QVQLVESGGGLVQAGGSLRLSCAASGRTFYLYTMGWYRQAPGKERELVATISDGGGGTYYADSVKGRFTISRDNAKNTVYLQMNSLKPEDPAVYYCAADPIDVRDVPIPHVDFDYWGQGTQVTVSS	low polyreactivity

Then there is this sequence:
Return reported polyreactivity (PSR sort gate); argument: `QVQLVESGAGLVQAGGSLRLSCAASGRIFNWYVMGWYRQAPGKERELVAAINSGGITKYADSVKGRFTISRDNAKNTVYLQMNSLKPEDTAVYYCAAYYRRYDYDYWGQGTQVTVSS`
high polyreactivity

====

PROTOCOL: yeast display, Sf9 membrane polyspecificity reagent, FACS + sequencing; frameworks hold sequencing errors
READOUT_TYPE: polyreactivity (PSR sort gate)

Solved cases below.
MACROMOLECULE_SEQUENCE	OBSERVED_MEASUREMENT
QVQLVESGGGLVQAGGSLRLSCAASGFIFYRYAMGWYRQAPGKERELVAAITGSGARTYYADSVKGRFTISRDNAKNTVYLQMNSLKPEDTAVYYCNARGYRGYDYWGQGTQVTVSS	high polyreactivity
QVQLVESGGGLVQAGGSLRLSCAASGSIFLYNAMGWYRQAPGKERELVAAITWSTDRTYYADSVKGRFTISRDNAKNTVYVQMNSLKPEDTAVYYCNRLVNHIYVPRRDYWGQGTQVTVSS	low polyreactivity
QVQLVESGGGLVQAGGSLRISCDASGRTFYYYAMGWYRQAPGKERELVASITITDSTNYADSVKGRFTISRDNAKNTVYLQMNSLKPEDTAVYYCAKRGWGTSFYLSDYWGQGTEVTVSS	low polyreactivity
QVQLVESGGGLVQAGGSLRLSCAASGRTFGYNAMGWYRQAPGKERELVASISWSGGTTYYADSVKGRFTISRDNAKNTVYLQMNSLKPEDTAVYYCAADRQSYVTRLYRSYWGNYWGQGTQVTVSS	high polyreactivity
QVQLVESGGGLVQAGGSLRLRCAPSGFIFNTMGWYRQAPGKERDLVATISWSDGSTYYADSVKGRFTISRDNAKNTVYLHMNSLKTEDTADYYCAATTDALVGRPRYDYWGQGTQVTVSS	low polyreactivity

Report polyreactivity (PSR sort gate) for each item below.
1. QVQLVESGGGLVQAGGSLRLSCAASGLIFVRYAMGWYRQAPGKERELVAAITTGGRTYYADSVKGRFTISRDNAKNTVYLQMNSLKPEDTAVYYCAAQSFYGIYYGQQDYDYWGQGTQVTVSS
2. QVQLVDSGGRLLQAGGSLRLSSAASGLIFKRYAMGWYIQAPGKERELDAAITSGSSTNYADSVKGRFTISRDNAKNTVYLQMNSLKPEDTAVYYCARDVYFSPYYRRSFQWRFDYWGQGTQVTVSS
3. QVQLVESGGGLVQAGGSLRLSCAASGSTFGVYGMGWYRQAPGKERELVASITSDGNTNYADSVKGRFTISRDNAKNTVYLQMNSLKPEDTAVYYCNTVGIQALYDYWGQGTQVTVSS

1: high polyreactivity; 2: high polyreactivity; 3: low polyreactivity
